- target-desc: Sigma-1 receptor (Cavia porcellus)
- protocol-description: In vitro binding affinity towards sigma receptor by the displacement of [3H]PPP from guinea pig brain
assay-metric: IC50 (nM)

[[record]]
compound = "Fc1ccc(OCCCN2CCN(c3ncc(F)cn3)CC2)cc1"
assay_metric = "IC50"
readout_units = "nM"
assay_result = 89

[[record]]
compound = "O=C(OC(CCCN1CCN(c2ncc(F)cn2)CC1)c1ccc(F)cc1)c1ccccc1 (configuration not stated)"
assay_metric = "IC50"
readout_units = "nM"
assay_result = 3500

[[record]]
compound = "NC(CCCN1CCN(c2ncc(F)cn2)CC1)C1CCCCC1 (configuration not stated)"
assay_metric = "IC50"
readout_units = "nM"
assay_result = 52


[P] OC(CCCN1CCN(c2ncc(F)cn2)CC1)c1ccc(F)c2ccccc12 (configuration not stated)
[Q] Fc1ccc(CCCCN2CCN(c3ncc(F)cn3)CC2)cc1
[R] NC(CCCN1CCN(c2ncc(F)cn2)CC1)c1ccc(F)c2ccccc12 (configuration not stated)
Lookup: Hey, quick one: sort these by IC50, largest value first please. API: response body holds the labels in the requested order.
Found: R, P, Q
(R: 215 nM, P: 88 nM, Q: 23 nM)

[A] OC(CCCN1CCN(c2ncc(F)cn2)CC1)C1CCCCC1 (configuration not stated)
[B] Fc1ccc(SCCCN2CCN(c3ncc(F)cn3)CC2)cc1
Lookup: Which value of IC50 is greater, the one for A or the one for B ? Your choice should be expressed through its label.
Found: B

* * *

- target-desc: Sigma-1 receptor (Cavia porcellus)
- protocol-description: In vitro binding affinity towards sigma receptor by the displacement of [3H]PPP from guinea pig brain
Each item that follows carries a reported IC50.

Answered cases to consult:
[[record]]
molecule = "CC(=O)NC(CCCN1CCN(c2ncc(F)cn2)CC1)c1ccc(F)cc1 (centres undefined)"
assay_result = "> 49 nM"

[[record]]
molecule = "O=C(NC(CCCN1CCN(c2ncc(F)cn2)CC1)C1CCCCC1)c1ccc(F)cc1 (centres undefined)"
assay_result = "> 2 nM"

[[record]]
molecule = "O=C(NC(CCCN1CCN(c2ncc(F)cn2)CC1)c1ccc(F)cc1)c1ccc(F)cc1 (centres undefined)"
assay_result = "> 100 nM"


Lookup: Entry O=S(=O)(CCCN1CCN(c2ncc(F)cn2)CC1)c1ccc(F)cc1 has what IC50?
Found: > 45 nM
